Each entry below lists one item and its recorded max response value.
# Experiment description: qHTS assay for small molecule agonists of retinoid X receptor alpha signaling (AID 588544)
# Conditions used: HEK293T RXRa-UAS-bla, beta-lactamase reporter, 18 h; 530 nm emission
Records with an inconclusive call do not appear.

Mol smiles	Unit name	max response
COC(C)=O	%	-9.31
C=Cc1ccccc1	%	-4.91
O=S(=O)(c1ccccc1)N(CC(F)(F)F)c1ccc(C(O)(C(F)(F)F)C(F)(F)F)cc1	%	-15.6
CCCCCCCC/C=C\CCCCCCCC(=O)OC[C@@H](O)[C@H]1OC[C@H](O)[C@H]1O	%	-2.66
CN(C)Cc1ccccc1	%	-2.82
